Reported binding signal values are given for each entry in this list.
Biological target: GST-Rok-C97-191 (Bacillus subtilis subsp. subtilis str. …, UniProt O34857 97-191)
Sequence: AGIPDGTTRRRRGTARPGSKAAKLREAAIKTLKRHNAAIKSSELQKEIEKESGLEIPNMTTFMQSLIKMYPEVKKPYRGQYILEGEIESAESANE
Assay: protein binding microarray; Rok is a gene silencer of Bacillus subtilis; high values mean tight binding
Conditions: protein: recombinant; tags: GST (pTH5325, pDEST15-Magic modified); dsDNA, one strand shown
Over roughly 33,000 sequences, “e-score” has its median near -0.038; the highest 2% begin near 0.33. Shown is part of a subset that was picked to be rich in the highest values.
Answer format: numeric, E-score implied, no suffix.

Use the examples below as a reference point.
1) AATCTATC :: 0.421
2) CTATATTA :: 0.355
3) ACAAGCAC :: 0.019
4) CAATATTA :: 0.204

Return reported binding signal; argument: CGGAGAAC 0.0827

Return reported binding signal; argument: ATTCGCCC -0.192

Return reported binding signal; argument: GACTTTAC -0.0515

Return reported binding signal; argument: AATGTCGC 0.0115

Return reported binding signal; argument: GCAGATTA 0.028

Return reported binding signal; argument: GATCCGAC -0.0267
